Conditions: sealed, dark at 7° C.
Entries annotated with measured Time after yellow-brown discoloration of a 1% strength aqueous solution
value.type: Time after yellow-brown discoloration of a 1% strength aqueous solution

compound="C/C=C/C=C/C(=O)[O-].CCC(=O)[O-].[Ca+2] [calcium propionate sorbate]" measured_result=">12 months/>12 months"
compound=C/C=C/C=C/C(=O)[O-].O=C[O-].[Ca+2] measured_result="12 months/>12 months"
compound="C/C=C/C=C/C(=O)[O-].CC(=O)[O-].[Ca+2] [calcium acetate sorbate]" measured_result=">12 months />12 months"
compound=CCC(=O)[O-].O=C([O-])c1ccccc1.[Ca+2] measured_result="12 months"

meta.source: patent US6693216B2
